From: ChEMBL document CHEMBL1152933

System: K562
Test: Antiproliferative activity against human K562 cells after 48 hrs by MTT assay
Format: functional, cell-based
Settings: K562, 48 h
pIC50: −log10 of the molar value.
pIC50 of 5 or higher: Condition met. Under 5: Condition not met.

Here's what some known entries look like.
> print(dat)
                      smiles.representation  target.desc  qualitative.label
1  Cn1cc(C2=C(c3nn(CCCn4cccc4)c4ncccc34)C(=O)NC2=O)c2ccccc21         K562  Condition not met
2  Cn1cc(C2=C(c3nn(CCCCn4ccnc4)c4ncccc34)C(=O)NC2=O)c2ccccc21         K562  Condition not met
3  CN(C)CCCn1nc(C2=C(c3cn(C)c4ccccc34)C(=O)NC2=O)c2cccnc21         K562  Condition not met
4  Cn1cc(C2=C(c3n[nH]c4ncccc34)C(=O)N(c3ccccc3)C2=O)c2ccccc21         K562      Condition met
5  Cn1cc(C2=C(c3nn(CCn4ccnc4)c4ncccc34)C(=O)N(c3ccccc3)C2=O)c2ccccc21         K562  Condition not met

Input: Record Cn1cc(C2=C(c3nn(CCCN4CCCCC4)c4ncccc34)C(=O)NC2=O)c2ccccc21 ; criterion: pIC50 no lower than 5. Met?
Output: Condition met

Input: Record Cn1cc(C2=C(c3nn(CCCN4CCCCC4)c4ncccc34)C(=O)N(c3ccccn3)C2=O)c2ccccc21 ; criterion: pIC50 no lower than 5. Met?
Output: Condition not met

Input: Record Cn1cc(C2=C(c3nn(CCCn4cncn4)c4ncccc34)C(=O)NC2=O)c2ccccc21 ; criterion: pIC50 no lower than 5. Met?
Output: Condition not met

Input: Record Cn1cc(C2=C(c3n[nH]c4ncccc34)C(=O)NC2=O)c2ccccc21 ; criterion: pIC50 no lower than 5. Met?
Output: Condition not met

###

Tested on: SMMC-7721
Experiment: Antiproliferative activity against human SMMC7721 cells after 48 hrs by MTT assay
Assay type: functional, cell-based
Settings: SMMC-7721, 48 h
pIC50: −log10 of the molar value.
assay-endpoint: pIC50

> print(dat)
                      smiles.representation  assay.endpoint  measurement
1  Cn1cc(C2=C(c3nn(CCCn4cccc4)c4ncccc34)C(=O)N(c3ccccc3)C2=O)c2ccccc21           pIC50       < 4.00
2  CN(C)CCCn1nc(C2=C(c3cn(C)c4ccccc34)C(=O)N(c3ccccc3)C2=O)c2cccnc21           pIC50         4.51
3  Cn1cc(C2=C(c3nn(CCCn4cccc4)c4ncccc34)C(=O)NC2=O)c2ccccc21           pIC50       < 4.00
4  CN1CCN(CCCn2nc(C3=C(c4cn(C)c5ccccc45)C(=O)NC3=O)c3cccnc32)CC1           pIC50       < 4.00
5  Cn1cc(C2=C(c3nn(CCCN4CCCCC4)c4ncccc34)C(=O)N(c3cccc4ccccc34)C2=O)c2ccccc21           pIC50         6.66

Input: Specify measured pIC50 for Cn1cc(C2=C(c3n[nH]c4ncccc34)C(=O)N(c3ccccc3)C2=O)c2ccccc21 .
Output: < 4.00

Input: Specify measured pIC50 for Cn1cc(C2=C(c3nn(CCCCn4ccnc4)c4ncccc34)C(=O)NC2=O)c2ccccc21 .
Output: 4.54

Input: Specify measured pIC50 for Cn1cc(C2=C(c3nn(CCCO)c4ncccc34)C(=O)NC2=O)c2ccccc21 .
Output: < 4.00

Input: Specify measured pIC50 for Cn1cc(C2=C(c3nn(CCCCn4ccnc4)c4ncccc34)C(=O)N(c3ccccc3)C2=O)c2ccccc21 .
Output: 5.75

Input: Specify measured pIC50 for O=C1NC(=O)C(c2c[nH]c3ccccc23)=C1c1c[nH]c2ccccc12 .
Output: < 4.00

Input: Specify measured pIC50 for Cn1cc(C2=C(c3nn(CCCN4CCOCC4)c4ncccc34)C(=O)NC2=O)c2ccccc21 .
Output: < 4.00

Input: Specify measured pIC50 for Cn1cc(C2=C(c3nn(CCn4ccnc4)c4ncccc34)C(=O)N(c3ccccc3)C2=O)c2ccccc21 .
Output: < 4.00

Input: Specify measured pIC50 for Cn1cc(C2=C(c3nn(CCCN4CCCCC4)c4ncccc34)C(=O)N(c3ccccn3)C2=O)c2ccccc21 .
Output: < 4.00

Input: Specify measured pIC50 for CN(C)CCCn1nc(C2=C(c3cn(C)c4ccccc34)C(=O)NC2=O)c2cccnc21 .
Output: < 4.00

Input: Specify measured pIC50 for Cn1cc(C2=C(c3nn(CCn4ccnc4)c4ncccc34)C(=O)NC2=O)c2ccccc21 .
Output: < 4.00

Input: Specify measured pIC50 for Cn1cc(C2=C(c3n[nH]c4ncccc34)C(=O)N(c3cccc4ccccc34)C2=O)c2ccccc21 .
Output: < 4.00

Input: Specify measured pIC50 for Cn1cc(C2=C(c3nn(CCCn4ccnc4)c4ncccc34)C(=O)NC2=O)c2ccccc21 .
Output: < 4.00

Input: Specify measured pIC50 for Cn1cc(C2=C(c3n[nH]c4ncccc34)C(=O)NC2=O)c2ccccc21 .
Output: < 4.00

Input: Specify measured pIC50 for Cn1cc(C2=C(c3nn(CCCN4CCCCC4)c4ncccc34)C(=O)N(c3ccccc3)C2=O)c2ccccc21 .
Output: 5.52

Input: Specify measured pIC50 for Cn1cc(C2=C(c3nn(CCCn4ccnc4)c4ncccc34)C(=O)N(c3ccccc3)C2=O)c2ccccc21 .
Output: 4.46

Input: Specify measured pIC50 for Cn1cc(C2=C(c3nn(CCCn4cncn4)c4ncccc34)C(=O)N(c3ccccc3)C2=O)c2ccccc21 .
Output: < 4.00

###

Overview of reported IC50 across a group of compounds:
Assay: Inhibition of PKC by […] assay
Please respond with the number in µM and leave the unit unwritten.

Check out these entries, answers already filled in.
> print(dat)
                      smiles.representation  measurement
1  Cn1cc(C2=C(c3nn(CCCN4CCOCC4)c4ncccc34)C(=O)NC2=O)c2ccccc21         5.95
2  Cn1cc(C2=C(c3nn(CCCCn4ccnc4)c4ncccc34)C(=O)NC2=O)c2ccccc21         0.86
3  CN(C)CCCn1nc(C2=C(c3cn(C)c4ccccc34)C(=O)NC2=O)c2cccnc21         0.72
4  Cn1cc(C2=C(c3nn(CCCn4cncn4)c4ncccc34)C(=O)NC2=O)c2ccccc21          2.2
5  Cn1cc(C2=C(c3nn(CCCn4cccc4)c4ncccc34)C(=O)NC2=O)c2ccccc21          1.1
6  Cn1cc(C2=C(c3nn(CCCO)c4ncccc34)C(=O)NC2=O)c2ccccc21         3.15
7  O=C1NC(=O)C(c2c[nH]c3ccccc23)=C1c1c[nH]c2ccccc12         0.35

Next compound, please.
Input: Specify measured IC50 for Cn1cc(C2=C(c3nn(CCn4ccnc4)c4ncccc34)C(=O)NC2=O)c2ccccc21 .
Output: 9.1

###

Overview of reported pIC50 across a group of molecules:
Experiment: Inhibition of PKC by […] assay
pIC50: −log10 of the molar value.

> print(dat)
                      smiles.representation  measurement
1  Cn1cc(C2=C(c3nn(CCCN4CCCCC4)c4ncccc34)C(=O)N(c3ccc(Cl)cc3)C2=O)c2ccccc21       < 5.00
2  Cn1cc(C2=C(c3nn(CCCN4CCCCC4)c4ncccc34)C(=O)N(c3cccc4ccccc34)C2=O)c2ccccc21       < 5.00
3  Cn1cc(C2=C(c3nn(CCn4ccnc4)c4ncccc34)C(=O)N(c3ccccc3)C2=O)c2ccccc21       < 5.00
4  CN1CCN(CCCn2nc(C3=C(c4cn(C)c5ccccc45)C(=O)NC3=O)c3cccnc32)CC1         5.73
5  Cn1cc(C2=C(c3nn(CCCn4ccnc4)c4ncccc34)C(=O)NC2=O)c2ccccc21         6.05

Input: Specify measured pIC50 for Cn1cc(C2=C(c3nn(CCCn4ccnc4)c4ncccc34)C(=O)N(c3ccccc3)C2=O)c2ccccc21 .
Output: < 5.00

Input: Specify measured pIC50 for CN(C)CCCn1nc(C2=C(c3cn(C)c4ccccc34)C(=O)N(c3ccccc3)C2=O)c2cccnc21 .
Output: < 5.00

Input: Specify measured pIC50 for Cn1cc(C2=C(c3nn(CCCN4CCCCC4)c4ncccc34)C(=O)NC2=O)c2ccccc21 .
Output: 6.19

###

Test: Antiproliferative activity against human ECA109 cells after 48 hrs by MTT assay
Assay type: functional, cell-based
Conditions: ECa-109, 48 h
assay-endpoint: pIC50
Schema: pIC50 number; meaning minus log10 of the concentration expressed in molar units.

Check out these entries, answers already filled in.
> print(dat)
                      smiles.representation  measurement
1  O=C1NC(=O)C(c2c[nH]c3ccccc23)=C1c1c[nH]c2ccccc12         4.08
2  CN(C)CCCn1nc(C2=C(c3cn(C)c4ccccc34)C(=O)N(c3ccccc3)C2=O)c2cccnc21         5.23
3  Cn1cc(C2=C(c3nn(CCCN4CCCCC4)c4ncccc34)C(=O)N(c3cccc4ccccc34)C2=O)c2ccccc21         5.74
4  Cn1cc(C2=C(c3nn(CCCN4CCCCC4)c4ncccc34)C(=O)N(c3ccccc3)C2=O)c2ccccc21         4.91
5  Cn1cc(C2=C(c3nn(CCn4ccnc4)c4ncccc34)C(=O)N(c3ccccc3)C2=O)c2ccccc21         5.06
6  Cn1cc(C2=C(c3nn(CCCCn4ccnc4)c4ncccc34)C(=O)NC2=O)c2ccccc21         4.63

Next compound, please.
Input: Specify measured pIC50 for Cn1cc(C2=C(c3nn(CCCn4ccnc4)c4ncccc34)C(=O)N(c3ccccc3)C2=O)c2ccccc21 .
Output: 5.84
